Provide the reported inhibition at 10 µM of each item.
Target: BTK (Homo sapiens)
Sequence (Q06187 402-655 limits assumed): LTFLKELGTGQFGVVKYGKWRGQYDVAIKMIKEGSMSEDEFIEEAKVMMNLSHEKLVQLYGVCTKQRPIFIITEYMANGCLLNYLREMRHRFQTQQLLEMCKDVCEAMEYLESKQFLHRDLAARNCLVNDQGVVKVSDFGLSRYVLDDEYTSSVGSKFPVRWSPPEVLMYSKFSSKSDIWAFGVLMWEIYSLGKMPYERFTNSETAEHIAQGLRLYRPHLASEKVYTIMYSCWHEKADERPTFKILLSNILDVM
Experiment: biochemical
Conditions: read-out: BTK inhibition (%), 0.75 uM BTK, […] probe 3l, 15 min preincubation
Answer with a number only, understood to be in %.

Query: Quick check: inhibition at 10 µM of Nc1cc(C(F)(F)F)c(-c2cc(N3CCOCC3)nc(N3CCOCC3)n2)cn1 ?
Response: -4.1

Query: Please look up its inhibition at 10 µM: COc1cc2ncnc(Nc3ccc(F)c(Cl)c3)c2cc1NC(=O)/C=C/CN1CCCCC1
Response: 18.6

Query: Can you look up the measured inhibition at 10 µM of COc1cc(/C=C/C(=O)OC[C@H]2O[C@H](O[C@]3(CO)O[C@H](CO)[C@@H](O)[C@@H]3OC(=O)/C=C/c3cc(OC)c(O)c(OC)c3)[C@H](O)[C@@H](O)[C@@H]2O)cc(OC)c1O for me?
Response: -6.2

Query: Could you share which inhibition at 10 µM value was measured for CCNC(=O)[C@@H]1CCCN1C(=O)[C@H](CCCN=C(N)N)NC(=O)[C@H](CC(C)C)NC(=O)[C@@H](CC(C)C)NC(=O)[C@H](Cc1ccc(O)cc1)NC(=O)[C@H](CO)NC(=O)[C@H](Cc1c[nH]c2ccccc12)NC(=O)[C@H](Cc1cnc[nH]1)NC(=O)[C@@H]1CCC(=O)N1 ?
Response: -11.7

Query: Tell me the measured inhibition at 10 µM of Clc1ncnc2nc[nH]c12 , please.
Response: 9.3

Query: # get_value(readout='inhibition at 10 µM', item= CCOC(=O)C1=C(N)Oc2ccc(Br)cc2C1C(C#N)C(=O)OCC (stereo not drawn) )
Response: 15.6

Query: Which inhibition at 10 µM value belongs to O=C(Cc1cccc(OC(F)(F)F)c1)Nc1ccc(CCCCc2nnc(NC(=O)Cc3ccccn3)s2)nn1 ?
Response: 0

Query: Reported inhibition at 10 µM, molecule Cc1ccc(Cl)cc1N(CC(=O)Nc1c(F)cccc1F)S(C)(=O)=O : ____
Response: 0.8

Query: Reported inhibition at 10 µM, molecule CC(C)Cc1ccc([C@@H](C)C(=O)NS(C)(=O)=O)cc1 : ____
Response: -24.8

Query: Item under review: Cc1cccc(CC(=O)N2CCc3c2ccc(-c2cn(C)c4ncnc(N)c24)c3F)n1 . Reported inhibition at 10 µM?
Response: -9

Query: Any idea what inhibition at 10 µM was measured for CCOc1ccc(Cc2cc([C@@H]3O[C@H](SC)[C@@H](O)[C@H](O)[C@H]3O)ccc2Cl)cc1 ?
Response: -17.8

Query: // inhibition at 10 µM lookup, key: CCN(CC)CC(=O)Oc1ccc(NC(C)=O)cc1
Response: -0.8

Query: inhibition at 10 µM lookup needed for Cc1ccccc1-n1c(Cn2ncc3c(N)ncnc32)nc2cccc(C)c2c1=O , thanks.
Response: 4.1

Query: I'd like to know its inhibition at 10 µM. The molecule in question is O=c1[nH]c2ccccc2o1
Response: 5.4

Query: Record request: inhibition at 10 µM value, item O=c1cc(-c2ccc(O)c(O)c2)oc2cc(O)cc(O)c12
Response: 84.8

Query: Consider the molecule CO[C@@H](C)Cn1c(=O)n(C)c2cnc3ccc(-c4cncc(C(C)(C)O)c4)cc3c21 and give its measured inhibition at 10 µM.
Response: -11

Query: For the molecule shown here, CC(C)(Oc1ccc(Cl)cc1)C(=O)OCCOC(=O)c1cccnc1 , give the reported inhibition at 10 µM.
Response: -6.2

Query: Value lookup for inhibition at 10 µM; key = Cc1ccc(S(=O)(=O)Cc2nc(-c3ccc(C(=O)NCc4cccnc4)cc3)oc2C)cc1
Response: -4.6

Query: I have this molecule here, O=C(Nc1cn[nH]c1-c1nc2ccc(CN3CCOCC3)cc2[nH]1)NC1CC1 , and I need its recorded inhibition at 10 µM.
Response: 93.8

Query: Which measured inhibition at 10 µM value corresponds to CC(=O)O[C@@H]1C[C@H](O)[C@@]23CO[C@@H](O)[C@]1(C)[C@@H]2C[C@@H](O)[C@]1(C)[C@@H]3C(=O)[C@H](OC(C)=O)[C@@]2(C)[C@H](c3ccoc3)C[C@H]3O[C@]321 ?
Response: -15.4

Query: inhibition at 10 µM; subject: CNC(=O)c1cnn(-c2nc(N)c3ncn([C@@H]4O[C@H](CO)[C@@H](O)[C@H]4O)c3n2)c1
Response: 5.4

Query: If you can, please state the reported inhibition at 10 µM value of c1ccc(Cn2c(-c3ccc(OC[C@H](C4CCNCC4)n4c(-c5ccccc5)nc5ccccc54)cc3)nc3ccccc32)cc1 .
Response: 86.5

Query: # get_value(readout='inhibition at 10 µM', item= C=CC(=O)N1C[C@H](Nc2ncnc3[nH]ccc23)CC[C@@H]1C )
Response: 95

Query: Bench note: what inhibition at 10 µM did CC(C)(C)OC(=O)N[C@H]1CCCCC/C=C\[C@@H]2C[C@@]2(C(=O)NS(=O)(=O)C2CC2)NC(=O)[C@@H]2C[C@@H](OC(=O)N3Cc4cccc(F)c4C3)CN2C1=O show?
Response: -12.5

Query: Entry under review: CCCS(=O)(=O)Nc1ccc(F)c(C(=O)c2c[nH]c3ncc(Cl)cc23)c1F . Reported inhibition at 10 µM?
Response: 23.4

Query: Find the recorded inhibition at 10 µM belonging to C[C@@H]1O[C@@H](O[C@H]2[C@H](O[C@H]3CC[C@@]4(C)[C@@H](CC[C@]5(C)[C@@H]4CC=C4[C@@H]6CC(C)(C)CC[C@]6(C(=O)O[C@@H]6O[C@H](CO[C@@H]7O[C@H](CO)[C@@H](O[C@@H]8O[C@@H](C)[C@H](O)[C@@H](O)[C@H]8O)[C@H](O)[C@H]7O)[C@@H](O)[C@H](O)[C@H]6O)CC[C@]45C)[C@]3(C)CO)OC[C@H](O)[C@@H]2O)[C@H](O)[C@H](O)[C@H]1O and report it.
Response: -10.1

Query: Name the reported inhibition at 10 µM value associated with the molecule COc1nc(C)cnc1NS(=O)(=O)c1cccnc1-c1ccc(-c2nnco2)cc1
Response: 3.4
